The compounds listed here are annotated with their % Response.
# measurement_target: ATX (Homo sapiens, UniProt Q13822)
# Construct: conditioned serum-free medium (CCM) from MDA-MB-435 cells as the source of ATX; endogenous in cells; host or cells: MDA-MB-435 cells (about 10x concentrated conditioned serum-free medium)
# assay_summary: ATX inhibition assay (FS-3 substrate)
# Type: biochemical
# setup_conditions: preliminary screen; FS-3 hydrolysis at one hour, normalized to vehicle control, mean±S.D.; same values given at 10 μM in Table 5

{"columns": ["compound_structure_string", "readout_units", "% Response"],
 "data": [
  ["CC(=O)NS(=O)(=O)c1ccc(NC(=O)c2ccccc2C(=O)O)cc1", "%", 99],
  ["Nc1ccc2cc(S(=O)(=O)O)cc(O)c2c1N=Nc1ccc(-c2ccc(N=Nc3c(S(=O)(=O)O)cc4cc(S(=O)(=O)O)c(N=Nc5ccc([N+](=O)[O-])cc5)c(N)c4c3O)cc2)cc1", "%", 43],
  ["O=C(Nc1ccc(S(=O)(=O)c2ccc(NC(=O)Nc3ccc4cc(S(=O)(=O)O)ccc4c3)cc2)cc1)Nc1ccc2cc(S(=O)(=O)O)ccc2c1.[Na+]", "%", 57],
  ["O=C(O)c1ccc2c(c1Nc1ccc(-c3ccc(Nc4c(C(=O)O)ccc5c4C(=O)c4ccccc4C5=O)cc3)cc1)C(=O)c1ccccc1C2=O", "%", 70]
]}
